- assay system: Adenosine receptor A2b (Homo sapiens) (UniProt P29275)
- Sequence (P29275 whole entry): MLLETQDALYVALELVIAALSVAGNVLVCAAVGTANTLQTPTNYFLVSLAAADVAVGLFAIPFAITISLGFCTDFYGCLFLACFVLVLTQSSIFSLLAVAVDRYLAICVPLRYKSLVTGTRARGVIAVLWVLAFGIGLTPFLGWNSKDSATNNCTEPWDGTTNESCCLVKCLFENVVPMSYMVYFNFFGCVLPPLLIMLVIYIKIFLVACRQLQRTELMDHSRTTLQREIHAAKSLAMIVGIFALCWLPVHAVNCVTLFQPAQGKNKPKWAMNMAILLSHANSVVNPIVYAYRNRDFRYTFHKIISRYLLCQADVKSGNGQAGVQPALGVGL
- test name: Displacement of [3H]DPCPX from human recombinant adenosine A2B receptor expressed in HEK293 cells at 1 uM by microplate beta scintillation counter
- Format: cell-based
Record true whenever Activity is at 30% or higher; record false when lower.

{"compound": "Cn1c(=O)c2[nH]c(-c3cccs3)nc2n(CC2CCCCC2)c1=O", "assay system": "Adenosine receptor A2b (Homo sapiens) (UniProt P29275)", "assigned class": "true"}
{"compound": "O=c1c2[nH]c(-c3cccs3)nc2n(CC2CCCCC2)c(=O)n1CC1CCCCC1", "assay system": "Adenosine receptor A2b (Homo sapiens) (UniProt P29275)", "assigned class": "false"}
{"compound": "CCCn1c(=O)c2[nH]c(-c3ccccc3)nc2n(CCOCC)c1=O", "assay system": "Adenosine receptor A2b (Homo sapiens) (UniProt P29275)", "assigned class": "false"}
{"compound": "CCOCCn1c(=O)n(CC)c(=O)c2[nH]c(-c3ccc(-c4ccccc4)cc3)nc21", "assay system": "Adenosine receptor A2b (Homo sapiens) (UniProt P29275)", "assigned class": "true"}
{"compound": "CCn1c(=O)c2[nH]c(Cc3c(F)cccc3F)nc2n(Cc2ccccc2)c1=O", "assay system": "Adenosine receptor A2b (Homo sapiens) (UniProt P29275)", "assigned class": "false"}
{"compound": "CCn1c(=O)c2[nH]c(-c3ccccc3)nc2n(CCS(=O)(=O)CC)c1=O", "assay system": "Adenosine receptor A2b (Homo sapiens) (UniProt P29275)", "assigned class": "false"}
{"compound": "Cn1c(=O)c2[nH]c(Cc3cccs3)nc2n(CC2CCCCC2)c1=O", "assay system": "Adenosine receptor A2b (Homo sapiens) (UniProt P29275)", "assigned class": "false"}
{"compound": "CCSCCn1c(=O)n(CC)c(=O)c2[nH]c(-c3ccc(-c4ccccc4)cc3)nc21", "assay system": "Adenosine receptor A2b (Homo sapiens) (UniProt P29275)", "assigned class": "false"}
{"compound": "CCCn1c(=O)c2[nH]c(-c3ccccc3)nc2n(CC2CCCO2)c1=O (centres undefined)", "assay system": "Adenosine receptor A2b (Homo sapiens) (UniProt P29275)", "assigned class": "true"}
{"compound": "CCCn1c(=O)c2[nH]c(Cc3ccccc3)nc2n(CCS(=O)(=O)CC)c1=O", "assay system": "Adenosine receptor A2b (Homo sapiens) (UniProt P29275)", "assigned class": "false"}
{"compound": "CCn1c(=O)c2[nH]c(Cc3cccs3)nc2n(Cc2ccccc2)c1=O", "assay system": "Adenosine receptor A2b (Homo sapiens) (UniProt P29275)", "assigned class": "true"}
{"compound": "CCn1c(=O)c2[nH]c(Cc3c(F)cccc3F)nc2n(Cc2cccs2)c1=O", "assay system": "Adenosine receptor A2b (Homo sapiens) (UniProt P29275)", "assigned class": "true"}
{"compound": "CCn1c(=O)c2[nH]c(Cc3ccco3)nc2n(Cc2ccccc2)c1=O", "assay system": "Adenosine receptor A2b (Homo sapiens) (UniProt P29275)", "assigned class": "true"}
{"compound": "CCCn1c(=O)c2[nH]c(-c3ccccc3)nc2n(CCS(=O)(=O)CC)c1=O", "assay system": "Adenosine receptor A2b (Homo sapiens) (UniProt P29275)", "assigned class": "true"}
